Tested on: A498
assayInfo: Cytotoxicity against human A498 cells assessed as cellular growth at 10 uM by SRB assay
Format: functional
We begin with a simple list: items and their reported Activity.
Use % as the unit, but write only the number.

Some entries whose results are on file:
Data request, read-out Activity, for `O=C(Nc1nc2ccc(Cl)cc2s1)c1ccc(Cl)cc1`
94.69

Data request, read-out Activity, for `N#Cc1ccc(NC(=O)c2sc3nc4c(cc3c2N)C(=O)CCC4)cc1`
79.55

Data request, read-out Activity, for `COc1ccc(S(=O)(=O)n2ccc(-c3ccc4c(c3)CCC(C)(C)O4)n2)cc1`
89.14

Data request, read-out Activity, for `O=C(NCCc1ccc(Cl)cc1)c1[nH]c2ccccc2c1Cl`
77.04

Data request, read-out Activity, for `CC1(C)CC(=O)c2cc3c(N)c(C(=O)Nc4ccc(Cl)cc4)sc3nc2C1`
75.63

New cases:
Data request, read-out Activity, for `Cc1ccc(S(=O)(=O)Oc2ccc(-c3cnc4ccccc4n3)cc2)cc1`
88.71

Data request, read-out Activity, for `Nc1c(C(=O)NCc2ccccc2)sc2nc3c(cc12)C(=O)CCC3`
100.49

Data request, read-out Activity, for `O=C1N=C(c2ccccc2)S/C1=C\c1ccc2c(c1)OCO2`
80.95

====

We begin with a simple list: items and their reported Activity.
Test system: MOLT-4
assayInfo: Cytotoxicity against human MOLT4 cells assessed as cellular growth at 10 uM by SRB assay
Type: functional
Use % as the unit, but write only the number.

Some entries whose results are on file:
Data request, read-out Activity, for `O=C1N=C(c2ccccc2)S/C1=C\c1ccc2c(c1)OCO2`
109.24

Data request, read-out Activity, for `Nc1c(C(=O)Nc2ccccc2)sc2nc3c(cc12)C(=O)CCC3`
43.43

Data request, read-out Activity, for `Clc1ccc(-c2nc(-c3cccs3)no2)cc1`
86.35

Data request, read-out Activity, for `O=C(Nc1nc2ccccc2s1)c1ccc(F)cc1`
100.31

Data request, read-out Activity, for `CC1(C)CCc2cc(-c3ccn(S(=O)(=O)c4ccccc4Cl)n3)ccc2O1`
64.66

New cases:
Data request, read-out Activity, for `Nc1c(C(=O)Nc2ccccc2F)sc2nc3c(cc12)C(=O)CCC3`
73.64

Data request, read-out Activity, for `O=C(Nc1ccc(S(=O)(=O)Nc2nccs2)cc1)c1cccs1`
95.09

====

Tested on: UACC-62
assayInfo: Cytotoxicity against human UACC62 cells assessed as cellular growth at 10 uM by SRB assay
Format: functional
We begin with a simple list: items and their reported Activity.

Some entries whose results are on file:
Data request, read-out Activity, for `Cc1ccc(C(=O)/C=C2/Nc3ccc(C)cc3OC2=O)cc1`
96.95%

Data request, read-out Activity, for `O=C(NCc1ccc(Cl)cc1)c1[nH]c2ccccc2c1Cl`
96.15%

Data request, read-out Activity, for `CC1(C)CC(=O)c2cc3c(N)c(C(=O)Nc4ccc(F)cc4)sc3nc2C1`
119.59%

# input for lookup
Data request, read-out Activity, for `COc1ccc2nc(NC(=O)c3ccc(F)cc3)sc2c1`
88.71%

====

We begin with a simple list: items and their reported Activity.
System: SW-620
assayInfo: Cytotoxicity against human SW620 cells assessed as cellular growth at 10 uM by SRB assay
Format: functional
Use % as the unit, but write only the number.

Some entries whose results are on file:
Data request, read-out Activity, for `Clc1ccc(-c2nc(-c3cccs3)no2)c(Cl)c1`
88.07

Data request, read-out Activity, for `Cc1cccc(-c2nc(-c3cccs3)no2)c1`
90.68

Data request, read-out Activity, for `Cc1ccc(CNC(=O)c2[nH]c3ccccc3c2Cl)cc1`
89.73

Data request, read-out Activity, for `O=C(Nc1ccc(S(=O)(=O)Nc2nccs2)cc1)c1cccs1`
111.55

New cases:
Data request, read-out Activity, for `Cc1ccc2c(c1)N/C(=C/C(=O)c1ccc(Cl)cc1)C(=O)O2`
114.93

Data request, read-out Activity, for `Clc1ccccc1Nc1nnc(-c2ccncc2)s1`
91.55
